Test system: ERBB4
Conditions: concentration: 1 μM, replicates: in singlicate; n = 1;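 further: KINOMEscan kinase panel screen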
Reported %Inh by item:
Number only, in %; omit the unit.

Below, each entry is followed by its recorded %Inh result.
compound	assayTarget	numericValue
Cn1ccc2ncnc(Oc3cccc(C(=O)Nc4ccccc4)c3)c21	ERBB4	0
Cc1ccccc1-n1cnc2c(N)ncnc21	ERBB4	0
CCCc1ccc(S(=O)(=O)NC2CCN(c3ccnc(Nc4ccc(F)cc4)n3)C2)cc1 (stereo not drawn)	ERBB4	25
O=C(Nc1ccccc1)Nc1cccc(Oc2ccc3nccn3n2)c1	ERBB4	0
Cc1c(Cn2ccn3c(=O)cc(N4CCOCC4)nc23)cccc1C(F)(F)F	ERBB4	0
Cc1cc(-c2ccc3c(c2)CC[C@@H](N[C@@H](C)c2ccccc2)C3)cnc1N.Cl	ERBB4	0
CC(=O)Nc1nc2cnc(Nc3cc(NC(=O)c4cccc(CCC#N)c4)ccc3C)nc2s1	ERBB4	14
Cc1cc(N2Cc3ccccc3C2)nc(Nc2ccc(S(=O)(=O)N3CCOCC3)cc2)n1.Cl	ERBB4	26
COc1ccccc1-c1ccc2c(NC(=O)C3CC3)n[nH]c2n1	ERBB4	23
Cc1ccc(NC(=O)Nc2cc(C(C)(C)C)nn2-c2ccccc2)cc1	ERBB4	0

Q) # lookup: %Inh of `Cc1cccc(-c2nc(Nc3ccncc3)c3ccccc3n2)n1`
A) 0

Q) Next compound up: `CN(C)CCN(C)C(=O)c1cc(-c2ccncc2)c(-c2ccc(Cl)c(O)c2)o1.Cl.Cl`
A) 33

====

System: ACVR2B
Conditions: concentration: 1 μM, replicates: in singlicate; n = 1
propertyMeasured: %Inh (%)
Number only, in %; omit the unit.

Below, each entry is followed by its recorded %Inh result.
compound	assayTarget	%Inh, %
O=C(O)COc1ncnc2cc(-c3ccc4[nH]ncc4c3)sc12	ACVR2B	0
Nc1ncnc2[nH]c(-c3ccccc3)nc12 [AH5015]	ACVR2B	0
Cl.c1ccc(-c2n[nH]cc2-c2ccnc(-c3ccc(CN4CCOCC4)cc3)c2)nc1 [GW776245]	ACVR2B	9
COc1ccc(Nc2nccc(-c3cccc(NC(=O)c4cc5cc(F)ccc5[nH]4)c3)n2)cc1 [GSK1229782]	ACVR2B	19
COC(=O)c1c(-c2ccccc2)c2cc(OC)ccc2c(=O)n1Cc1ccccc1	ACVR2B	0

Q) GET /values?readout=%Inh&system=ACVR2B&item= Cc1cc(-c2ccc3c(c2)CC[C@@H](N[C@@H](C)c2ccccc2)C3)cnc1N.Cl [GW412617]
A) 0

====

Tested on: PDPK1
Settings: concentration: 1 μM, replicates: in singlicate; n = 1
Reported %Inh by item:

compound	result
COc1cc2ncn(-c3cc(OCC4CCCO4)c(C(N)=O)s3)c2cc1OC (stereo not drawn)	0%
Cc1c(O)cccc1Nc1ccnc2ccc(C(F)(F)F)cc12.Cl	0%

Now take the following compound into account.
Q) # lookup: %Inh of COc1cc(Nc2nccc(N3CCC(NC(=O)Nc4cc(C)ccc4C)C3)n2)cc(OC)c1OC (stereo not drawn)
A) 11%

====

System: DMPK2
Construct: gene CDC42BPG
Conditions: concentration: 1 μM, replicates: in singlicate; n = 1
Reported %Inh by item:
Number only, in %; omit the unit.

Below, each entry is followed by its recorded %Inh result.
smilesText	uom	%Inh
Cn1ccc2ncnc(Oc3ccc(NC(=O)Nc4ccccc4)cc3)c21	%	0
COc1cc2nccc(Nc3ccc(NC(=O)c4ccc(C)cc4)c(O)c3)c2cc1OC.Cl	%	0
CCn1c(-c2ccccn2)nc2cnccc21	%	0
Cl.NC(=O)c1cccc(Nc2nccc(Nc3ccc(Oc4cccc(Cl)c4)c(Cl)c3)n2)c1	%	55
Cc1ccc(NC(=O)Nc2cccc(Cl)c2)cc1-c1ccc(C(=O)Nc2ccncc2)cc1	%	8

Q) # lookup: %Inh of `Clc1cc(Cl)cc(Nc2ccnc(Nc3cc(Cl)cc(Cl)c3)n2)c1`
A) 18

Q) Next compound up: `COc1ccc(Nc2nccc(NCCNC(=O)Nc3ccccc3F)n2)cc1`
A) 0

Q) Next compound up: `Cc1cc(-c2ccc3c(c2)CC[C@@H](N[C@@H](C)c2ccccc2)C3)cnc1N.Cl`
A) 4

====

System: EPHA8
Details: concentration: 1 μM, replicates: in singlicate; n = 1
propertyMeasured: %Inh (%)
Number only, in %; omit the unit.

compound	%Inh (%)
COc1ccc2nc(-c3cccc(C)n3)nc(Nc3ccncc3)c2c1 [GSK204919]	9
Cl.O=C(Nc1cccc(-c2nn3ncccc3c2-c2ccnc(Nc3cccnc3)n2)c1)c1c(F)cccc1F [GSK312879]	27
Cl.Oc1ccc(-c2nc(-c3ccccc3)[nH]c2-c2ccncc2)cc1 [SB-428218]	4

Q) # lookup: %Inh of CN1C(=O)C(Nc2ccc(Cl)c(C(=O)O)c2)=C(c2ccc(Cl)cc2)C1=O [SB-404290]
A) 19

Q) Next compound up: Cc1ccccc1-n1cnc2c(N)ncnc21 [SKF-97510]
A) 0

====

Reported %Inh by item:
System: NEK9
Settings: concentration: 1 μM, replicates: in singlicate; n = 1
Number only, in %; omit the unit.

Below, each entry is followed by its recorded %Inh result.
compound	%Inh, %
COc1ccccc1-c1ccc2c(NC(=O)C3CC3)n[nH]c2n1 [SB-711239]	5
Clc1cc(Cl)cc(Nc2ccnc(Nc3cc(Cl)cc(Cl)c3)n2)c1 [GSK175726]	7

Now take the following compound into account.
Q) # lookup: %Inh of `O=C(Nc1ccccc1)Nc1cccc(Oc2ccc3nccn3n2)c1`
A) 36

====

Tested on: SgK110
Conditions: concentration: 1 μM, replicates: in singlicate; n = 1
propertyMeasured: %Inh (%)
Number only, in %; omit the unit.

Q) # lookup: %Inh of `CC(C)(C)c1ccc(C(=O)Nc2cn3cc(Cl)ccc3n2)cc1`
A) 0

Q) Next compound up: `Cc1ccc(-c2cc(-c3c[nH]nc3-c3ccccn3)ccn2)cc1`
A) 2

Q) Next compound up: `Cn1ccc2ncnc(Oc3ccc(Nc4nc5ccccc5[nH]4)cc3)c21`
A) 0

Q) Next compound up: COc1ccc(CNC(=O)NC2CCN(c3ccnc(Nc4cc(OC)c(OC)c(OC)c4)n3)C2)cc1 (stereo not shown)
A) 0

====

System: DYRK1A
Conditions: concentration: 1 μM, replicates: in singlicate; n = 1
// assign met if %Inh falls strictly below 10%, else not met (ties count as not met)

Completed entries (count: 5):
molecule	answerLabel
COc1cccc(-c2cc(-c3c[nH]nc3-c3ccccn3)ccn2)c1	not met
O=C(Nc1n[nH]c2nc(-c3nccs3)c(Br)cc12)C1CCCC1	not met
Cc1csc(-c2nc(Nc3ccncc3)c3ccccc3n2)n1	not met
CC(C)(C)c1ccc(C(=O)Nc2cn3cc(Cl)ccc3n2)cc1	not met
O=C(O)COc1ncnc2cc(-c3ccc4[nH]ncc4c3)sc12	not met

Q) Consider `Cc1cccc(-c2nc(Nc3ccncc3)c3ccccc3n2)n1` . Does its %Inh lie strictly below 10%?
A) met

Q) Next molecule up: `O=C(Nc1n[nH]c2nc(-c3nccs3)c(Br)cc12)C1CC1`
A) not met

Q) Next molecule up: COc1cc(Nc2nccc(N3CCC(NC(=O)Nc4cc(C)ccc4C)C3)n2)cc(OC)c1OC (stereo not drawn)
A) not met

Q) Next molecule up: Cc1nnc(-c2ccc3occ(-c4ccc(S(C)=O)cc4)c3c2)[nH]1 (stereo not drawn)
A) not met

Q) Next molecule up: `Cc1cccc(-c2nc(Nc3cccc(C(N)=O)c3)c3ccccc3n2)n1`
A) met

Q) Next molecule up: `Fc1cc(Cl)ccc1Nc1ccnc2cc(I)ccc12`
A) not met

====

Test system: DAPK1
Conditions: concentration: 1 μM, replicates: in singlicate; n = 1
Reported %Inh by item:
Number only, in %; omit the unit.

smilesText	propertyMeasured	numericValue
CC(C)(C)c1ccc(C(=O)Nc2cn3cc(-c4cccnc4)ccc3n2)cc1	%Inh	40
Cl.O=C(Nc1cccc(-c2nn3ncccc3c2-c2ccnc(Nc3cccnc3)n2)c1)c1c(F)cccc1F	%Inh	2

Q) # lookup: %Inh of `CN1C(=O)C(Nc2ccc(Cl)c(C(=O)O)c2)=C(c2ccc(Cl)cc2)C1=O`
A) 0

Q) Next compound up: `Cn1ccc2ncnc(Oc3ccc(NC(=O)Nc4ccccc4)cc3)c21`
A) 11

Q) Next compound up: `O=C(Nc1n[nH]c2cc(-c3cccc(F)c3F)ccc12)C1CC1`
A) 20

====

Test system: CAMK1D
Conditions: concentration: 1 μM, replicates: in singlicate; n = 1
Reported %Inh by item:
Number only, in %; omit the unit.

Q) # lookup: %Inh of `Cn1cncc1-c1ccc2ncnc(Nc3ccc(OCc4ccccc4)cc3)c2c1`
A) 23

Q) Next compound up: `Cc1cccc(-c2nc(Nc3ccncc3)c3ccccc3n2)n1`
A) 3

Q) Next compound up: `COc1ccc2nc(-c3cccc(C)n3)nc(Nc3ccncc3)c2c1`
A) 2

====

Reported %Inh by item:
System: MKNK1
Conditions: concentration: 1 μM, replicates: in singlicate; n = 1
# output: numeric value plus its unit

Below, each entry is followed by its recorded %Inh result.
molecule	%Inh
CCn1c(-c2ccccn2)nc2cnccc21	26%
COc1cc2ncnc(Nc3ccc4nc(-c5ccccc5)[nH]c4c3)c2cc1OC.Cl	2%
COc1ccc(C2=C(Nc3cccc(C(=O)O)c3)C(=O)NC2=O)cc1	0%
COc1cc(Nc2nccc(N3CCC(NC(=O)Nc4cc(C)ccc4C)C3)n2)cc(OC)c1OC (stereo not drawn)	9%
Cn1ccc2ncnc(Oc3ccc(NC(=O)Nc4ccccc4)cc3)c21	13%

Now take the following molecule into account.
Q) # lookup: %Inh of `Cc1ccc(-c2cc(-c3c[nH]nc3-c3ccccn3)ccn2)cc1`
A) 0%
